Please provide measured MIC for the entries that follow.
# Tested on: Pseudomonas aeruginosa
# test: Antibacterial activity against Pseudomonas aeruginosa 25349 clinical isolate incubated for 18 to 24 hrs by broth microdilution method
# Type: functional
Where a SMILES comes first, the peptide text is derived from it.
Give a bare numeral; the unit µM is implied.

Reported MIC, compound "CC[C@H]1OC(=O)[C@H](C)[C@@H](O[C@H]2C[C@@](C)(OC)[C@@H](O)[C@H](C)O2)[C@H](C)[C@@H](O[C@@H]2O[C@H](C)C[C@H](N(C)C)[C@H]2O)[C@](C)(O)C[C@@H](C)C(=O)[C@H](C)[C@@H](O)[C@]1(C)O" : ____
128

Reported MIC, compound "CO[C@H]1/C=C/O[C@@]2(C)Oc3c(C)c(O)c4c(O)c(c(/C=N/N5CCN(C)CC5)c(O)c4c3C2=O)NC(=O)/C(C)=C\C=C\[C@H](C)[C@H](O)[C@@H](C)[C@@H](O)[C@@H](C)[C@H](OC(C)=O)[C@@H]1C" : ____
16

Reported MIC, compound CC(C)C[C@H](NC(=O)[C@H](CCCCN)NC(=O)[C@H](Cc1c[nH]c2ccccc12)NC(=O)[C@H](CCCCN)NC(=O)[C@H](CC(C)C)NC(=O)[C@H](CCCCN)NC(=O)[C@H](Cc1c[nH]c2ccccc12)NC(=O)[C@H](CCCCN)NC(=O)[C@H](CC(C)C)NC(=O)[C@H](CCCCN)NC(=O)[C@@H](N)Cc1c[nH]c2ccccc12)C(=O)N[C@@H](CCCCN)C(N)=O (H-WKLKWKLKWKLK-NH2) : ____
4

Reported MIC, compound CC(C)[C@H](NC(=O)[C@H](CCCNC(=N)N)NC(=O)[C@H](Cc1c[nH]c2ccccc12)NC(=O)[C@H](CCCNC(=N)N)NC(=O)[C@@H](NC(=O)[C@H](CCCCN)NC(=O)[C@H](Cc1c[nH]c2ccccc12)NC(=O)[C@H](CCCNC(=N)N)NC(=O)[C@@H](NC(=O)[C@H](CCCNC(=N)N)NC(=O)[C@@H](N)Cc1c[nH]c2ccccc12)C(C)C)C(C)C)C(=O)N[C@@H](CCCCN)C(N)=O (H-WRVRWKVRWRVK-NH2) : ____
4

Reported MIC, compound CC(C)C[C@H](NC(=O)[C@H](CCCNC(=N)N)NC(=O)[C@H](Cc1c[nH]c2ccccc12)NC(=O)[C@H](CCCNC(=N)N)NC(=O)[C@H](CC(C)C)NC(=O)[C@H](CCCNC(=N)N)NC(=O)[C@H](Cc1c[nH]c2ccccc12)NC(=O)[C@H](CCCNC(=N)N)NC(=O)[C@H](CC(C)C)NC(=O)[C@H](CCCNC(=N)N)NC(=O)[C@@H](N)Cc1c[nH]c2ccccc12)C(=O)N[C@@H](CCCNC(=N)N)C(N)=O (H-WRLRWRLRWRLR-NH2) : ____
4

Reported MIC, compound N=C(N)NCCC[C@H](NC(=O)[C@H](Cc1ccccc1)NC(=O)[C@H](CCCNC(=N)N)NC(=O)[C@H](Cc1c[nH]c2ccccc12)NC(=O)[C@H](CCCNC(=N)N)NC(=O)[C@H](Cc1ccccc1)NC(=O)[C@H](CCCNC(=N)N)NC(=O)[C@H](Cc1c[nH]c2ccccc12)NC(=O)[C@H](CCCNC(=N)N)NC(=O)[C@H](Cc1ccccc1)NC(=O)[C@H](CCCNC(=N)N)NC(=O)[C@@H](N)Cc1c[nH]c2ccccc12)C(N)=O (H-WRFRWRFRWRFR-NH2) : ____
8
